STUDY_SYSTEM: Amyloid-beta precursor protein (Homo sapiens)
EXPERIMENT: Inhibition of self-induced human amyloid beta (1 to 42) aggregation at 25 uM after 24 hrs by thioflavin-T based fluorescence assay relative to control
List of inhibition values.
Note: unit % is implicit; provide only the numeric part.

Past entries and their recorded results:
- MOLECULE: "COC(=O)C1Cc2c([nH]c3ccccc23)C(c2ccccc2)N1C(=O)CCN1CCN(CCC(=O)N2C(C(=O)OC)Cc3c([nH]c4ccccc34)C2c2ccccc2)CC1 (stereo unspecified)"
  inhibition / %: 41.9
- MOLECULE: "COC(=O)C1Cc2c([nH]c3ccccc23)C(C)N1C(=O)CN1CCN(CC(=O)N2C(C(=O)OC)Cc3c([nH]c4ccccc34)C2C)CC1 (stereo unspecified)"
  inhibition / %: 50.8

Requested read-out: inhibition. Entry: COC(=O)C1Cc2c([nH]c3ccccc23)C(c2ccccc2)N1C(=O)CN(C)CCN(C)CC(=O)N1C(C(=O)OC)Cc2c([nH]c3ccccc23)C1c1ccccc1 (stereo unspecified)
65.1

Data request, read-out inhibition, for `COC(=O)c1cc2c3ccccc3n(CCCN(C)CCN(C)CCCn3c4ccccc4c4cc(C(=O)OC)nc(-c5ccccc5)c43)c2c(-c2ccccc2)n1`
25.4

For COC(=O)C1Cc2c([nH]c3ccccc23)CN1C(=O)CCN(C)CCN(C)CCC(=O)N1Cc2[nH]c3ccccc3c2CC1C(=O)OC (stereo unspecified) , what is its reported inhibition?
59.2

Please report the recorded inhibition for `COC(=O)c1cc2c3ccccc3n(CCCCN(C)CCN(C)CCCCn3c4ccccc4c4cc(C(=O)OC)nc(-c5ccccc5)c43)c2c(-c2ccccc2)n1` .
71.5

###

EXPERIMENT: Neurotoxicity against human SH-SY5Y cells assessed as cell viability at 2.5 uM after 24 hrs by MTT assay relative to control
Type: toxicity, cell-based
TEST_CONTEXT: read-out: Activity
// values below are reported viability at 24 h, 2.5 µM
Numbers only here, please. The scale is %.

Answered examples (3):
- COMPOUND: "COC(=O)C1Cc2c([nH]c3ccccc23)C(C)N1C(=O)CCCN1CCN(CCCC(=O)N2C(C(=O)OC)Cc3c([nH]c4ccccc34)C2C)CC1 (centres undefined)"
  UNIT_LABEL: "%"
  OBSERVED_VALUE: 99.1
- COMPOUND: "COC(=O)C1Cc2c([nH]c3ccccc23)C(C)N1C(=O)CCN(C)CCN(C)CCC(=O)N1C(C(=O)OC)Cc2c([nH]c3ccccc23)C1C (centres undefined)"
  UNIT_LABEL: "%"
  OBSERVED_VALUE: 92.8
- COMPOUND: "COC(=O)c1cc2c3ccccc3n(CCCN(C)CCN(C)CCCn3c4ccccc4c4cc(C(=O)OC)nc(-c5ccccc5)c43)c2c(-c2ccccc2)n1"
  UNIT_LABEL: "%"
  OBSERVED_VALUE: 93.2

# ---- query compound ----
Entry COC(=O)C1Cc2c([nH]c3ccccc23)C(C)N1C(=O)CCN1CCN(CCC(=O)N2C(C(=O)OC)Cc3c([nH]c4ccccc34)C2C)CC1 (centres undefined) has what viability at 24 h, 2.5 µM?
99.9
